Origin of values: patent US20260042764A1

experimentalTarget: Avi-KRAS WT (2-169) GTP/RAF1 RBD-3xFLAG (51-131) (Homo sapiens, UniProt P01116)
Construct: Avi-KRAS WT (2-169)
experimentNotes: Raf1-KRAS WT-GTP disruption HTRF assay (Biological Example 3)
Format: binding
statedConditions: KRAS WT, GTP-loaded
Protocol: Biological Example 3: Disrupting RAS-Effector Binding HTRF Assay A protein:protein interaction (PPI) Homogeneous Time Resolved Fluorescence (HTRF) assay was used to determine the effectiveness of compounds in disrupting KRAS protein and effector (RAF1) binding. […] Plates were analyzed on an Envision plate reader using the following setting: Excitation 320 nm, Bandwidth 75 nm; Emission 615 nm, Bandwidth 85 nm; Gain 100%; Flashes 100; Lag 60 μs. […] Data was plotted and analyzed using Prism 8. […]
endpointName: IC50

INSERT INTO results (compound, endpointname, recordedmeasurement) VALUES
  ('CCN(c1nc(OC[C@@]23CCCN2C[C@H](F)C3)nc2c(F)c(-c3ccc(F)c4sc(N)c(C#N)c34)c(C(F)(F)F)cc12)[C@H]1CC(=O)N(C)C1 (atropisomer, axis not shown)', 'IC50', '100 to 1000 nM'),
  ('C/C=C/C(=O)N1CC[C@H](N(CC)c2nc(OC[C@@]34CCCN3C[C@H](F)C4)nc3c(F)c(-c4ccc(F)c5sc(N)c(C#N)c45)c(C(F)(F)F)cc23)C1 (atropisomer, axis not shown)', 'IC50', '≤ 100 nM'),
  ('CN(C)C(=O)c1cc2n(n1)CCN(c1nc(OC[C@@]34CCCN3C[C@H](F)C4)nc3c(F)c(-c4ccc(F)c5sc(N)c(C#N)c45)c(C(F)(F)F)cc13)C2', 'IC50', '1000 to 10000 nM');

###

experimentalTarget: Avi-KRAS G12D (1-169) GppNHp/RAF1 RBD-3xFLAG (52-151) (Homo sapiens, UniProt P01116, G12D)
Construct: Avi-KRAS G12D (1-169)
Sequence (P01116 1-169 isoform P01116-2 G12D): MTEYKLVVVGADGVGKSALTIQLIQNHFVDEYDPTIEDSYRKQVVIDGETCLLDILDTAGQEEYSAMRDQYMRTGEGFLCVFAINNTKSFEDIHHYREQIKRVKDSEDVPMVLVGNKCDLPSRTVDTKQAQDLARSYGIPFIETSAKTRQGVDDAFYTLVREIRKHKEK
experimentNotes: Raf1-KRAS G12D-GppNHP disruption HTRF assay (Biological Example 1)
Assay type: binding
statedConditions: KRAS G12D-GppNHp/RAF1 RBD HTRF
As shown below, each of these compounds has a reported IC50 value.
endpointName: IC50

INSERT INTO measurements (compound, recordedmeasurement) VALUES
  ('N#Cc1c(N)sc2c(F)ccc(-c3c(C(F)(F)F)cc4c(N5CC6CC(C5)O6)nc(OC[C@@]56CCCN5C[C@@]5(CC5(F)F)C6)nc4c3F)c12', '0.1 to 1 µM'),
  ('C[C@@H]1[C@H](N(C)c2nc(OC[C@@]34CCCN3C[C@H](F)C4)nc3c(F)c(-c4ccc(F)c5sc(N)c(C#N)c45)c(Cl)cc23)CCN1C(=O)C1(F)CC1', '1 to 10 µM'),
  ('CCN(c1nc(OC[C@@]23CCCN2C[C@H](F)C3)nc2c(F)c(-c3ccc(F)c4sc(N)c(C#N)c34)c(C(F)(F)F)cc12)[C@H]1CC(=O)N(C(C)C)C1', '1 to 10 µM'),
  ('CC(=O)N1CCC[C@@H](N(C)c2nc(OC[C@@]34CCCN3C[C@H](F)C4)nc3c(F)c(-c4ccc(F)c5sc(N)c(C#N)c45)c(C(F)(F)F)cc23)C1', '0.1 to 1 µM'),
  ('N#Cc1c(N)sc2c(F)ccc(-c3c(C(F)(F)F)cc4c(N5CC6OCC5C6O)nc(OC[C@@]56CCCN5C[C@H](F)C6)nc4c3F)c12 (some centres unmarked)', '0.1 to 1 µM');

###

experimentalTarget: Avi-KRAS WT (1-169) GppNHp/RAF1 RBD-3xFLAG (52-151) (Homo sapiens)
Construct: Avi-KRAS WT (1-169)
Sequence (P01116 1-169 isoform P01116-2): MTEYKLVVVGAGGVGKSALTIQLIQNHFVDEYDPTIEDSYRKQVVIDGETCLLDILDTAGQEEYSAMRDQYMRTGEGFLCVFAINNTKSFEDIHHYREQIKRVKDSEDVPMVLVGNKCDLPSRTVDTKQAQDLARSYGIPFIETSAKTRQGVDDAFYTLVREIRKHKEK
experimentNotes: Raf1-KRAS WT-GppNHP disruption HTRF assay (Biological Example 1)
Type: binding
statedConditions: KRAS WT, GppNHp-loaded; class symbols
pIC50: −log10 of the molar value.
As shown below, each of these molecules has a reported pIC50 value.
endpointName: pIC50

INSERT INTO assay_data (molecule, recordedmeasurement) VALUES
  ('CCC(=O)N1C[C@@H](N(CC)c2nc(OC[C@@]34CCCN3C[C@H](F)C4)nc3c(F)c(-c4ccc(F)c5sc(N)c(C#N)c45)c(C(F)(F)F)cc23)C[C@@H]1COC (atropisomer, axis not shown) [Compound 648]', '6.00 to 7.00'),
  ('CCN(c1nc(OC[C@@]23CCCN2C[C@H](F)C3)nc2c(F)c(-c3ccc(F)c4sc(N)c(C#N)c34)c(C(F)(F)F)cc12)[C@H]1CCN(C(=O)C2COC2)C1 (atropisomer, axis not shown) [Compound 580]', '> 7.00'),
  ('CCN(c1nc(OC[C@@]23CCCN2C[C@H](F)C3)nc2c(F)c(-c3ccc(F)c4sc(N)c(C#N)c34)c(C(F)(F)F)cc12)[C@H]1CCN(C(=O)N2CC3(COC3)C2)C1 (atropisomer, axis not shown) [Compound 637]', '> 7.00'),
  ('CCN(C)C(=O)N1CC[C@H](N(CC)c2nc(OC[C@@]34CCCN3C[C@H](F)C4)nc3c(F)c(-c4ccc(F)c5sc(N)c(C#N)c45)c(C(F)(F)F)cc23)C1 (atropisomer, axis not shown) [Compound 582]', '> 7.00'),
  ('CCN1CC[C@@H](N(CC)c2nc(OC[C@@]34CCCN3C[C@H](F)C4)nc3c(F)c(-c4ccc(F)c5sc(N)c(C#N)c45)c(C(F)(F)F)cc23)C1=O (atropisomer, axis not shown) [Compound 695]', '6.00 to 7.00'),
  ('CCN(c1nc(OC[C@@]23CCCN2C[C@H](F)C3)nc2c(F)c(-c3ccc(F)c4sc(N)c(C#N)c34)c(C(F)(F)F)cc12)[C@H]1CCN(C(=O)[C@H](C)OC)C1 (atropisomer, axis not shown) [Compound 571]', '> 7.00'),
  ('CCN(c1nc(OCC23CCCN2CC(F)C3)nc2c(F)c(-c3ccc(F)c4sc(N)c(C#N)c34)c(C(F)(F)F)cc12)C1CC(C)N(C(=O)C2CC2(F)F)C1 (centres unmarked) [Compound 732]', '6.00 to 7.00'),
  ('Cc1c(C(=O)N2CCCC2)nn2c1CN(c1nc(OCC34CCCN3CC(F)C4)nc3c(F)c(-c4ccc(F)c5sc(N)c(C#N)c45)c(C(F)(F)F)cc13)CC2 (centres unmarked) [Compound 744]', '6.00 to 7.00'),
  ('CCN(c1nc(OC[C@@]23CCCN2C[C@H](F)C3)nc2c(F)c(-c3ccc(F)c4sc(N)c(C#N)c34)c(C(F)(F)F)cc12)[C@H]1C[C@H](COC)N(C(=O)OC)C1 (atropisomer, axis not shown) [Compound 718]', '> 7.00'),
  ('CCN(c1nc(OC[C@@]23CCCN2C[C@H](F)C3)nc2c(F)c(-c3ccc(F)c4sc(N)c(C#N)c34)c(C(F)(F)F)cc12)[C@H]1C[C@@H](COC)N(C(=O)OC)C1 (atropisomer, axis not shown) [Compound 714]', '6.00 to 7.00'),
  ('CCN(c1nc(OC[C@@]23CCCN2C[C@H](F)C3)nc2c(F)c(-c3ccc(F)c4sc(N)c(C#N)c34)c(C(F)(F)F)cc12)[C@H]1CCN(C(=O)[C@@H]2CC2(F)F)[C@@H]1C (atropisomer, axis not shown) [Compound 693]', '> 7.00'),
  ('CCN(c1nc(OC[C@@]23CCCN2C[C@H](F)C3)nc2c(F)c(-c3ccc(F)c4sc(N)c(C#N)c34)c(C(F)(F)F)cc12)[C@H]1CCN(C(C)=O)[C@@H]1C (atropisomer, axis not shown) [Compound 591]', '> 7.00'),
  ('CCN(c1nc(OC[C@@]23CCCN2C[C@H](F)C3)nc2c(F)c(-c3ccc(F)c4sc(N)c(C#N)c34)c(C(F)(F)F)cc12)[C@@H]1C[C@H](C)N(C(=O)COC)C1 (atropisomer, axis not shown) [Compound 589]', '6.00 to 7.00'),
  ('CCN(c1nc(OC[C@@H]2C[C@@H](OC)CN2C)nc2c(F)c(-c3ccc(F)c4sc(N)c(C#N)c34)c(C(F)(F)F)cc12)[C@H]1CCN(C(=O)C(C)C)C1 [Compound 706]', '6.00 to 7.00'),
  ('CCN(c1nc(OC[C@@]23CCCN2C[C@H](F)C3)nc2c(F)c(-c3ccc(F)c4sc(N)c(C#N)c34)c(C(F)(F)F)cc12)[C@H]1CCN(C(=O)c2ccncn2)C1 (atropisomer, axis not shown) [Compound 730]', '> 7.00'),
  ('CCN(c1nc(OC[C@@]23CCCN2C[C@H](F)C3)nc2c(F)c(-c3ccc(F)c4sc(N)c(C#N)c34)c(C(F)(F)F)cc12)[C@H]1C[C@@H]2CCC(=O)N2C1 (atropisomer, axis not shown) [Compound 628]', '> 7.00'),
  ('CCN(c1nc(OC[C@@]23CCCN2C[C@H](F)C3)nc2c(F)c(-c3ccc(F)c4sc(N)c(C#N)c34)c(C(F)(F)F)cc12)[C@H]1CCN(C(=O)[C@@H]2CCCCO2)C1 (atropisomer, axis not shown) [Compound 769]', '> 7.00');
